# Tested on: U2OS
# TEST NAME: Here: values are normalized to the positive (DMSO; basel flux = defined as 100% suppression) and negative (250nM Torin1; mTOR inhibitor; maximal inducer of autophagy defined as 0% suppression) control compounds and represented as % of ER-phagy suppression. […] The impact of autophagy induction on cells is complex and depends on the affected target. […] Of note, treatment concentrations may be sub-optimal for specific compounds, leading to false negative annotations.
# Assay type: functional, Homo sapiens
# PROTOCOL CONDITIONS: Compound Concentration 1 uM, Timepoint 24 hours, Culturing Media DMEM, 1 % Penicillin/Streptomycin, 10% Fetal bovin serum Add-On: blasticidin, Screening Media Control DMEM, 10% Fetal bovin serum Add-On: 1 µg/ml Doxycyclin, Screening Media Samples DMEM, 10% Fetal bovin serum Add-On: 1 µg/ml Doxycyclin 250nM Torin1
Item-by-item account of ER-phagy suppression
Please give a number only; it is taken to be in %.

Below, each entry is followed by its recorded ER-phagy suppression result.
{"COMPOUND": "C[C@@H]1CN(CC(=O)Nc2ccc3c(c2)Cc2cccc(-c4cc(=O)cc(N5CCOCC5)o4)c2S3)C[C@H](C)O1", "MEASURED TARGET": "U2OS", "ER-phagy suppression / %": 45.431}
{"COMPOUND": "O=C1Nc2ccc(I)cc2/C1=C/c1cc(Br)c(O)c(Br)c1", "MEASURED TARGET": "U2OS", "ER-phagy suppression / %": -24.7924}
{"COMPOUND": "COc1ccccc1-c1cc(Nc2cccc(CS(N)(=O)=O)c2)ncn1", "MEASURED TARGET": "U2OS", "ER-phagy suppression / %": 50.2137}
{"COMPOUND": "CC(C)C(=O)Nc1n[nH]c2cc(-c3cccc(NS(=O)(=O)C4CC4)c3)ccc12", "MEASURED TARGET": "U2OS", "ER-phagy suppression / %": 4.089}

Which ER-phagy suppression value belongs to Cc1cn(-c2cc(NC(=O)c3ccc4c(c3)CN(c3cncnc3)C[C@@H]4C)cc(C(F)(F)F)c2)cn1 ? -7.191

Same question, Cn1ccc(Cn2cnc(-c3ccc(F)cc3)c2-c2ccnc3[nH]ccc23)n1 this time -19.5738

* * *

# System: U2OS
# TEST NAME: Here: values are normalized to the negative (DMSO; defined as 0% autophagy induction) and positive (250nM Torin1; mTOR inhibitor; defined as maximal inducer of autophagy = 100%) control compounds and represented as % of autophagy induction. […] The impact of autophagy induction on cells is complex and depends on the affected target. As such, the magnitude of a phenotype may not be equally mirrored in the %-value of autophagy induction and vice versa. The dynamics of the induction may indicate the mode of activation: e.g. activation via phosphorylation or a signaling cascade may occur fast, while activation via transcription factors may take considerably longer. […] Of note, treatment concentrations may be sub-optimal for specific compounds, leading to false negative annotations.
# Format: functional, Homo sapiens
# PROTOCOL CONDITIONS: Compound Concentration 2 uM, Timepoint 60 hours, Culturing Media DMEM, 1 % Penicillin/Streptomycin, 10% Fetal bovin serum Add-On: No, Screening Media Control DMEM, Screening Media Samples DMEM
MEASURED ENDPOINT: autophagy induction (%)
Please give a number only; it is taken to be in %.

Below, each entry is followed by its recorded autophagy induction result.
{"COMPOUND": "CCC[C@H](Oc1cc(C)c(-n2cc(C(F)(F)F)cn2)c(C)c1)c1ccc(C(=O)NCCC(=O)O)cc1 [PF-06291874]", "MEASURED TARGET": "U2OS", "autophagy induction, %": -1.615}
{"COMPOUND": "FC(F)(F)c1cccc(-c2noc(-c3cc(-c4ccccc4)c(C(F)(F)F)s3)n2)c1", "MEASURED TARGET": "U2OS", "autophagy induction, %": -1.735}
{"COMPOUND": "Cc1csc2c(N[C@@H](C)CN3CCN(S(=O)(=O)c4ccc(Cl)c(Cl)c4)CC3)ncnc12", "MEASURED TARGET": "U2OS", "autophagy induction, %": 114.139}
{"COMPOUND": "Cl.Clc1cccc(COc2cncc(N3CCNCC3)n2)c1", "MEASURED TARGET": "U2OS", "autophagy induction, %": 0.5358}

For the next question, use this compound.
Which autophagy induction value belongs to Cc1nc(C#Cc2ccnc(Cl)c2)c(C)n1-c1ccc(OC(F)(F)F)cc1 ? 114.204
